# PROTOCOL_SUMMARY: wn = mass fraction of the nth substance listed
# COND: 328.15 K; 101 kPa; Liquid; Vibrating tube method; w1 = 0.2
EXPERIMENTAL_ENDPOINT: mass density (kg/m3)

{"COMPOUND": "CC(O)CN (centres undefined) [1-amino-2-propanol] + O", "READOUT_VALUE": 986.546}
{"COMPOUND": "CC(O)CN(CC(C)O)CC(C)O (centres undefined) [triisopropanolamine] + O", "READOUT_VALUE": 996.847}
{"COMPOUND": "OCCNCCO [diethanolamine] + O", "READOUT_VALUE": 1007.78}
{"COMPOUND": "CC(O)CNCC(C)O (centres undefined) [N-(2-hydroxypropyl)-2-hydroxy-1-propanamine] + O", "READOUT_VALUE": 996.358}
